# target-under-test: T1, Murine CD73 on cells (4T1, Jurkat mCD73 knock-in) (murine, UniProt Q61503 29-551)
# T1 construct: whole, on cells; also called 4T1 (murine)
# T1 sequence (looked up): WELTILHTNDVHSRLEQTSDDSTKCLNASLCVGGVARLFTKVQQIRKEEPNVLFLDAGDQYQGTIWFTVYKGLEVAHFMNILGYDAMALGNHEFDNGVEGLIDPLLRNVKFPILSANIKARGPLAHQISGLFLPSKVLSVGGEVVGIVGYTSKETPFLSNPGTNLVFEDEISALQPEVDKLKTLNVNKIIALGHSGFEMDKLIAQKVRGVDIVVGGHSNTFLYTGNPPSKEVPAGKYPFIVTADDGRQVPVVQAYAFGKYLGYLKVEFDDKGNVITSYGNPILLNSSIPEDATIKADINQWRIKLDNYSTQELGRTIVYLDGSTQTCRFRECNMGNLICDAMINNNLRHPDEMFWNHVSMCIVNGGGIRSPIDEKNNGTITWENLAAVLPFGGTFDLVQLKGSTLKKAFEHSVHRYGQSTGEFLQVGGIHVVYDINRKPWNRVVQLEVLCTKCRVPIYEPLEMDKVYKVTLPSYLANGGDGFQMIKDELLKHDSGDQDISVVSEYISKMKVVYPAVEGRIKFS
# method: flow cytometry on cells
attribute-measured: Kd

Below are worked cases with known answers.
binder	result
73combo5 (G10+GRVE+HPT) (antibody, V domains shown, IgG1-TM format; also called clone 10 combo5) VH: EVQLLESGGGLVQPGGSLRLSCAASGFTFSSYAYSWVRQAPGKGLEWVSAISGSWGRTYYADSVKGRFTISRDNSKNTLYLQMNSLRAEDTAVYYCARLGYGRVDEWGRGTLVTVSS VL: QSVLTQPPSASGTPGQRVTISCSGSLSNIGRNDVNWYQQLPGTAPKLLIYLNNQRLGGVPDRFSGSKSGTSASLAISGLQSEDEADYYCATWDDSHPGWTFGGGTKLTVL	0.205 nM
CD730002 2C5 (antibody, V domains shown, IgG1-TM format; also called clone 2C5 antibody) VH: EVQLLESGGGLVQPGGSLRLSCAASGFTFSSYAMSWVRQAPGKGLEWVSAISGSGGSTYYADSVKRRFTISRDNSKNTLYLQMNSLRAEDTAVYYCARDKGYYWYMDVWGQGTMVTVSS VL: QSVLTQPPSVSVSPGQTASITCSGDKVGDKYASWYQQKPGQSPVLVIYEDTKRLSGIPERFSGSNSGNTATLTISGTQAMDEADYYCQAWDTSFWVFGGGTKLTVL	0.055 nM

Let me know recorded Kd for 73combo2 (C2+GRVE+HPT) (antibody, V domains shown, IgG1-TM format; also called clone 10 combo2) VH: EVQLLESGGGLVQPGGSLRLSCAASGFTFSSYAYSWVRQAPGKGLEWVSLIWGSWGSTYYADSVKGRFTISRDNSKNTLYLQMNSLRAEDTAVYYCARLGYGRVDEWGRGTLVTVSS VL: QSVLTQPPSASGTPGQRVTISCSGSLSNIGRNPVNWYQQLPGTAPKLLIYLDNLRLGGVPDRFSGSKSGTSASLAISGLQSEDEADYYCATWDDSHPGWTFGGGTKLTVL , thanks. 0.064 nM
